- system-under-test: glucocorticoid receptor (GR) (Homo sapiens)
- Construct: of the glucocorticoid receptor (GR, amino acids 443-777)
- Sequence (P04150 443-777): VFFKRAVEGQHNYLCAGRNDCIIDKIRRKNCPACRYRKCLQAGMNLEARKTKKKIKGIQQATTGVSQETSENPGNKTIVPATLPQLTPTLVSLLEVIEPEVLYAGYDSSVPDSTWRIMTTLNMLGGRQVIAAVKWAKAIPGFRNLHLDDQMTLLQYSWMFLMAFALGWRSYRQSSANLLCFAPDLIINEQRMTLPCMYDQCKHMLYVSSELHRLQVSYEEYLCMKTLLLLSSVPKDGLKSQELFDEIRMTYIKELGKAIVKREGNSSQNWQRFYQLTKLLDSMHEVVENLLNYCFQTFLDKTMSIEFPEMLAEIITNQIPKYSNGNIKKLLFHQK
- test-details: Cellular in vitro assay, GAL4-GR chimera luciferase reporter in CHO K1 cells (selectivity)
- condition-description: GAL4-GR ligand-binding domain chimera, agonist dexamethasone
endpoint-label: pIC50
Answers are plain numbers, as −log10 of the molar value.

CCc1cccc2c(C(CCCO)c3ccc(C(F)(F)F)cc3)c[nH]c12 (single isomer, unassigned) ... 5.19
Cc1cccc2c(C(CCCC#N)c3ccc(C(F)(F)F)cc3)c[nH]c12 (single isomer, unassigned) ... 5.29
CS(=O)(=O)Nc1cccc2c(C(CCO)c3ccc(C(F)(F)F)cc3)c[nH]c12 (stereo not drawn) ... 6.15

Each compound below has a reported value. Please supply its pIC50.
1. CS(=O)(=O)Nc1cccc2c(C(CCC#N)c3ccc(C(F)(F)F)cc3)c[nH]c12 (single isomer, unassigned)
2. CCc1cccc2c(C(CCC#N)c3ccc4ccccc4c3)c[nH]c12 (stereo not drawn)
3. CCc1cccc2c(C(CCCC#N)c3ccc(C(F)(F)F)cc3)c[nH]c12 (single isomer, unassigned)

Completion:
5.66
6.41
5.63
